Molecular target: Cyclin-dependent kinase 2/cyclin E1 (Homo sapiens, UniProt P24941)
Assay: Binding affinity to CDK2/Cyclin E1 (unknown origin) using Ulight-MBP as substrate assessed as inhibition constant preincubated for 30 mins followed by substrate addition measured after 90 mins in presence of ATP by TR-FRET assay
Each entry belongs to exactly one class, chosen by where its Ki falls: bin 1 (below 0.3 nM), bin 2 (0.3 nM to below 9 nM), bin 3 (9 nM or more)

// bin(item) where item = CC1CCCCN1C(=O)c1ccc2cnc(NC3CCOCC3)cc2n1 (racemic)
bin 3

// bin(item) where item = `O=C(N[C@H](CO)c1ccc(Cl)c(F)c1)c1ccc2cnc(NC3CCOCC3)nc2c1`
bin 2

// bin(item) where item = `CNS(=O)(=O)c1ccc(Nc2ncc3ccc(C(=O)N4C[C@@H](F)C[C@@H]4C)nc3n2)c(F)c1`
bin 2

// bin(item) where item = `C[C@H]1CCN1C(=O)c1ccc2cnc(NC3CCN(S(C)(=O)=O)CC3)nc2c1`
bin 1

// bin(item) where item = `O=C(N[C@H](CO)c1ccc(Cl)c(F)c1)c1ccc2cnc(NC3CCOCC3)nc2n1`
bin 2

// bin(item) where item = `CNS(=O)(=O)c1ccc(Nc2ncc3ccc(C(=O)N4CCC[C@@H]4C)cc3n2)cc1`
bin 2

// bin(item) where item = `CNS(=O)(=O)c1ccc(Nc2ncc3ccc(C(=O)N4CC[C@@H]4C)nc3n2)c(F)c1`
bin 1

// bin(item) where item = `O=C(N[C@H](CO)c1ccc(Cl)c(F)c1)c1ccc2cnc(NC3CCOCC3)cc2n1`
bin 3

// bin(item) where item = `CNS(=O)(=O)c1ccc(Nc2ncc3ccc(C(=O)N4CCC[C@@H]4C)cc3n2)c(C)c1`
bin 1

// bin(item) where item = `CNS(=O)(=O)c1ccc(Nc2ncc3ccc(C(=O)N4C[C@@H](F)C[C@@H]4C)nc3n2)c(C)c1`
bin 2

// bin(item) where item = `O=C(c1ccc2cnc(NC3CCOCC3)cc2n1)N1CCCCCC1`
bin 3

###

Assay: Metabolic stability in human liver microsomes assessed as clearance at 1 uM incubated upto 180 mins by LC/MS-MS analysis
Assay type: ADME, Microsome
Provide the recorded CLhep predicted at 1 µM for the entries that follow.
Numeric answer only, unit mL/min/kg assumed.

Fill in CLhep predicted at 1 µM for record `CNS(=O)(=O)c1ccc(Nc2ncc3ccc(C(=O)N4C[C@@H](F)C[C@@H]4C)nc3n2)c(C)c1`
12

Fill in CLhep predicted at 1 µM for record `CNS(=O)(=O)c1ccc(Nc2ncc3ccc(C(=O)N4C[C@@H](F)C[C@@H]4C)cc3n2)c(C)c1`
16

###

Test: Selectivity ratio of Ki for ERK2 (unknown origin) to Ki for CDK2/Cyclin E1 (unknown origin)
Provide the recorded Ratio Ki for the entries that follow.
Give the figure only, with no unit attached.

Fill in Ratio Ki for record `C[C@H]1CCCN1C(=O)c1ccc2cnc(NC3CCN(S(N)(=O)=O)CC3)nc2c1`
2800

Fill in Ratio Ki for record `CNS(=O)(=O)c1ccc(Nc2ncc3ccc(C(=O)N4CCC[C@@H]4C)cc3n2)cc1`
850

Fill in Ratio Ki for record `CNS(=O)(=O)c1ccc(Nc2ncc3ccc(C(=O)N4CCC[C@@H]4C)cc3n2)c(C)c1`
4800

Fill in Ratio Ki for record `O=C(c1ccc2cnc(NC3CCOCC3)cc2n1)N1CCCC1`
6.8

Fill in Ratio Ki for record `CS(=O)(=O)N1CCC(Nc2ncc3ccc(C(=O)N4CCCC4)cc3n2)CC1`
330

Fill in Ratio Ki for record CC1CCCCN1C(=O)c1ccc2cnc(NC3CCOCC3)cc2n1 (racemic)
13

Fill in Ratio Ki for record `O=C(c1ccc2cnc(NC3CCOCC3)cc2n1)N1CCC1`
1.8

Fill in Ratio Ki for record `C[C@H]1CCCN1C(=O)c1ccc2cnc(NC3CCN(S(C)(=O)=O)CC3)nc2c1`
110

Fill in Ratio Ki for record `O=C(c1ccc2cnc(NC3CCOCC3)cc2n1)N1CCCCCC1`
28

Fill in Ratio Ki for record `Cc1cc(S(C)(=O)=O)ccc1Nc1ncc2ccc(C(=O)N3CCC[C@@H]3C)cc2n1`
310

Fill in Ratio Ki for record `O=C(c1ccc2cnc(NC3CCOCC3)cc2n1)N1CCCCC1`
4.3

###

Target: Cyclin-dependent kinase 2/cyclin E1 (Homo sapiens)
Experiment: Binding affinity to CDK2/Cyclin E1 (unknown origin) using Ulight-MBP as substrate assessed as inhibition constant preincubated for 30 mins followed by substrate addition measured after 90 mins in presence of ATP by TR-FRET assay
Provide the recorded Ki for the entries that follow.
Numeric answer only, unit nM assumed.

Fill in Ki for record `C[C@@H]1CCCN1C(=O)c1ccc2cnc(NC3CCN(S(C)(=O)=O)CC3)nc2c1`
0.17

Fill in Ki for record `O=C(c1ccc2cnc(NC3CCOCC3)cc2n1)N1CCCC1`
88

Fill in Ki for record `CNS(=O)(=O)c1ccc(Nc2ncc3ccc(C(=O)N4C[C@@H](O)[C@@H]4C)nc3n2)c(F)c1`
1

Fill in Ki for record `O=C(c1ccc2cnc(NC3CCOCC3)cc2n1)N1CCC1`
13

Fill in Ki for record `CNS(=O)(=O)c1ccc(Nc2ncc3ccc(C(=O)N4C[C@@H](OC)[C@@H]4C)nc3n2)c(F)c1`
0.18

###

Assay: Apparent permeability across apical to basolateral side in MDCK cells at 5 uM measured for 60 to 180 mins by LC-MS/MS analysis
Assay type: ADME, cell-based, Canis lupus familiaris
Conditions: dog, time 60-180 min
test readout: Papp A→B at 5 µM (×10⁻⁶ cm/s)
Numeric answer only, unit ×10⁻⁶ cm/s assumed.

Fill in Papp A→B at 5 µM for record `CNS(=O)(=O)c1ccc(Nc2ncc3ccc(C(=O)N4C[C@@H](F)C[C@@H]4C)nc3n2)c(F)c1`
4.9

Fill in Papp A→B at 5 µM for record `CNS(=O)(=O)c1ccc(Nc2ncc3ccc(C(=O)N4C[C@@H](F)C[C@@H]4C)cc3n2)c(C)c1`
12

Fill in Papp A→B at 5 µM for record `CNS(=O)(=O)c1ccc(Nc2ncc3ccc(C(=O)N4CC[C@@H]4C)nc3n2)c(F)c1`
15

Fill in Papp A→B at 5 µM for record `CNS(=O)(=O)c1ccc(Nc2ncc3ccc(C(=O)N4C[C@@H](F)C[C@@H]4C)nc3n2)c(C)c1`
1.6

Fill in Papp A→B at 5 µM for record `CNS(=O)(=O)c1ccc(Nc2ncc3ccc(C(=O)N4C[C@H](F)[C@@H]4C)nc3n2)c(F)c1`
13

###

Test: Selectivity ratio of Ki for CDK4/Cyclin D3 (unknown origin) to Ki for CDK2/Cyclin E1 (unknown origin)
Label satisfied when Ratio Ki < 60; otherwise not satisfied.

Is 60 strictly greater than the compound's reported Ratio Ki? compound: `CNS(=O)(=O)c1ccc(Nc2ncc3ccc(C(=O)N4C[C@H](F)C[C@@H]4C)cc3n2)c(C)c1`
not satisfied

Is 60 strictly greater than the compound's reported Ratio Ki? compound: `Cc1cc(S(C)(=O)=O)ccc1Nc1ncc2ccc(C(=O)N3CCC[C@@H]3C)cc2n1`
satisfied

Is 60 strictly greater than the compound's reported Ratio Ki? compound: `CNS(=O)(=O)c1ccc(Nc2ncc3ccc(C(=O)N4C[C@@H](F)[C@@H]4C)nc3n2)c(F)c1`
not satisfied

Is 60 strictly greater than the compound's reported Ratio Ki? compound: `CC[C@H](Nc1nc(NCc2cnc(C)cc2C)c2ncn(C(C)C)c2n1)[C@@H](C)O`
satisfied

Is 60 strictly greater than the compound's reported Ratio Ki? compound: `C[C@@H]1CCCN1C(=O)c1ccc2cnc(NC3CCN(S(C)(=O)=O)CC3)nc2c1`
satisfied

Is 60 strictly greater than the compound's reported Ratio Ki? compound: `C[C@H]1CCCN1C(=O)c1ccc2cnc(NC3CCN(S(C)(=O)=O)CC3)nc2c1`
satisfied

###

Experiment: Selectivity ratio of Ki for CDK4/Cyclin D3 (unknown origin) to Ki for CDK2/Cyclin E1 (unknown origin)
Provide the recorded Ratio Ki for the entries that follow.
Give the figure only, with no unit attached.

Fill in Ratio Ki for record `CNS(=O)(=O)c1ccc(Nc2ncc3ccc(C(=O)N4CCC[C@@H]4C)cc3n2)c(C)c1`
813

Fill in Ratio Ki for record `CNS(=O)(=O)c1ccc(Nc2ncc3ccc(C(=O)N4C[C@@H](C#N)[C@@H]4C)nc3n2)c(F)c1`
186

Fill in Ratio Ki for record `C[C@H]1CCCN1C(=O)c1ccc2cnc(NC3CCN(S(N)(=O)=O)CC3)nc2c1`
78

Fill in Ratio Ki for record `CNS(=O)(=O)c1ccc(Nc2ncc3ccc(C(=O)N4CC[C@@H]4C)nc3n2)c(F)c1`
250

Fill in Ratio Ki for record `CNS(=O)(=O)c1ccc(Nc2ncc3ccc(C(=O)N4C[C@@H](F)C[C@@H]4C)nc3n2)c(F)c1`
155

Fill in Ratio Ki for record `CNS(=O)(=O)c1ccc(Nc2ncc3ccc(C(=O)N4CCC[C@@H]4C)cc3n2)cc1`
150

Fill in Ratio Ki for record `C[C@H]1CCN1C(=O)c1ccc2cnc(NC3CCN(S(C)(=O)=O)CC3)nc2c1`
16

Fill in Ratio Ki for record `CS(=O)(=O)N1CCC(Nc2ncc3ccc(C(=O)N4CCCC4)cc3n2)CC1`
16

Fill in Ratio Ki for record `CNS(=O)(=O)c1ccc(Nc2ncc3ccc(C(=O)N4C[C@@H](OC)[C@@H]4C)nc3n2)c(F)c1`
178
